# target-entity: Tyrosine-protein kinase receptor TYRO3 (Homo sapiens, UniProt Q06418)
# Sequence (Q06418 whole entry): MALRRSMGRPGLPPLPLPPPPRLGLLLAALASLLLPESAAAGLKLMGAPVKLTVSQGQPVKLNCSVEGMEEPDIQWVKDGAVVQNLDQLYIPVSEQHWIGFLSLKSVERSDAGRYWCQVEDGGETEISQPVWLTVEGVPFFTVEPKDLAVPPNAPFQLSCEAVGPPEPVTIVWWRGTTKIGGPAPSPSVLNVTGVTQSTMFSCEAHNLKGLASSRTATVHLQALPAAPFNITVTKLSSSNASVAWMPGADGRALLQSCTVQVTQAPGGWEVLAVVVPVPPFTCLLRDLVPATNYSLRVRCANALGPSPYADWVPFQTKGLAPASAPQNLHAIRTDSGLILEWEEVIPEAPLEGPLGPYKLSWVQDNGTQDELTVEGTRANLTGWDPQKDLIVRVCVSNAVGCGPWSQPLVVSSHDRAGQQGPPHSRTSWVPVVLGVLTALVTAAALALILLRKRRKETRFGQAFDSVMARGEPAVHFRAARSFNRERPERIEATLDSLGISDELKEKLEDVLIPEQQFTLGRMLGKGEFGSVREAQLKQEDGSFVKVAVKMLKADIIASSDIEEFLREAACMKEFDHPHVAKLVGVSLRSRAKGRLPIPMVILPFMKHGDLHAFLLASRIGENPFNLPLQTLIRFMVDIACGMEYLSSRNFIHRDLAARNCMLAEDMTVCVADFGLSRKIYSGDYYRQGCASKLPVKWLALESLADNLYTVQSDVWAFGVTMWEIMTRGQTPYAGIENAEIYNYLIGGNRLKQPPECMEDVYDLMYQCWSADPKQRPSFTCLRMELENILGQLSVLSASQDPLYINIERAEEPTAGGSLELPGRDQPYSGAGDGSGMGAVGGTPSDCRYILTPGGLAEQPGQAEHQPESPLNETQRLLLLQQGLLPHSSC
pIC50: −log10 of the molar value.
1 means recorded pIC50 is 6 or above; -1 means it is below 6.

Textbook exercise: given the entry CN(Cc1ccc2c(c1)CCCO2)c1nnc(-c2ccc(-c3ccccc3Cl)cc2)o1 , state whether its pIC50 is greater than or equal to 6.
-1

Textbook exercise: given the entry CN(Cc1ccc2nccn2c1)c1nnc(-c2ccc(-c3ccccc3Cl)nc2)o1 , state whether its pIC50 is greater than or equal to 6.
-1

Textbook exercise: given the entry Cc1c(C(=O)Nc2ccc(Oc3ccnc4[nH]cc(-c5ccccc5)c34)c(F)c2)c(=O)n(-c2ccc(F)cc2)n1C , state whether its pIC50 is greater than or equal to 6.
1

Textbook exercise: given the entry CN(Cc1ccc2nccn2c1)c1nnc(-c2ccc(-c3ccccc3Cl)cc2)o1 , state whether its pIC50 is greater than or equal to 6.
-1

Textbook exercise: given the entry COc1cc2ncnc(Nc3cnc(OCCC4CC4)nc3)c2cc1OCC1CCNCC1 , state whether its pIC50 is greater than or equal to 6.
-1

Textbook exercise: given the entry CN(Cc1ccc2nccn2c1)c1nnc(-c2ncc(C(F)(F)F)cc2Cl)o1 , state whether its pIC50 is greater than or equal to 6.
-1
